The origin of these recorded values is PubChem BioAssay.

Field: nuclei count. Provide a value for each of the molecules that follow.
test: reduction of polyQ htt aggregates in cells – imaging, exon1htt(103Q)mCFP cells, high-content imaging, primary screen (AID 483); conditions: exon1htt(103Q)mCFP cell line, aggregate imaging, at 2 µM; measured here: cell count, toxicity;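 note: compound exposure lasted 3 days before fixation; percent of the per-plate median nuclei count of sample wells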
Entry rule: numbers only, all in %.

Memo: CCOc1ccc(NC(=O)CSc2nc3cccnc3n2CC)cc1 , reported nuclei count: 92.3

Memo: COC(=O)COc1cccc(NC(=O)COc2ccccc2)c1 , reported nuclei count: 115

Memo: CCOC(=O)N1CCN(S(=O)(=O)c2ccc(OCC)c(C)c2)CC1 , reported nuclei count: 106

Memo: O=C(c1cnn2c(C(F)(F)F)cc(-c3ccco3)nc12)N1CCc2ccccc2C1 , reported nuclei count: 92.9

Memo: CC(=O)N(C)C1(c2nnnn2CCOC(=O)Nc2ccc(Cl)cc2)CCCCC1 , reported nuclei count: 107

Memo: Cc1ccc(-c2nnc(N(C)C(=O)c3ccccn3)s2)cn1 , reported nuclei count: 105
